- study.system: T1, proTGF-α-hFc (human, UniProt P01135 24-89)
- T1 construct: not shown: Fc portion of human immunoglobulin G1, fused on the C-terminal side
- experiment.notes: solid phase ELISA, proTGFα-hFc on plate

| binder | quantity.unit | OD (solid phase ELISA) |
| --- | --- | --- |
| MBL292-1 (antibody, mouse IgG1, V domains shown) VH: VQLQQSGAELVRPGASVKLSCTASGFNIKDDYMHWMKQRPEQGLEWIGRIDPANGNTKYAPKFQDKATITADTSSNTAYLQLSSLTSEDTAVYYCSRMGLLRGYWGQGTTLTVSS VL: IQMTQSSSSLSVSLGDRVTITCKASVHINSWLAWYQQKPGNAPRLLISGATNLKTGVPSRFSGSASGKDYTLSITSLQTEDVATYYCQQYWDTPWTFGGGTKLEIK | OD | 1.45 |
| MBL259-3 (antibody, mouse IgG2a, V domains shown) VH: VQLQQSGAELVRPGASVKLSCTASDFNIKDDYMHWMKQRPEQGLEWIGRIDPANGNTKYAPKFQDKATMTADTSSNTAYLQFSSLTSEDTAVYYCATSWGFPYWGQGTLVTVSA VL: DIVMTQAAPSVPVTPGESVSISCRSSKSLLHRNGNTYLYWFLQRPGQSPQLLIYRMSNLASGVPDRFSGSGSGTAFTLRISRVEAEDVGVYYCLQHLEYPYTFGSGTKLEIK | OD | 1.59 |
| MBL144-1 (antibody, mouse IgG1, V domains shown) VH: VQLQESGPGLAKPSQTLSLTCSVTGYSITSDYWNWIRKFPGNKLEYMGYISYSGSTYYNPSLKSRISITRDTSKNQYYLQLNSVTTEDTATYYCARSYDGICFDNWGQGTTLTVSS VL: DILMTQSPATLSVTPGETVSLSCRASQNTYKNLHWYQQKSHGTPKLLIKYASAPISGIPSRFTGSGSGTDYTLSINSVKPEDEGIYYCLQGYSMPWTFGGGTKLEIK | OD | 1.42 |
| MBL018-1 (antibody, mouse IgG1, V domains shown) VH: EVQLQQSGTVLTRPGASVKMSCKASGYTFTNFWIHWVKQRPGQGLDWIGAIYPGNTNTDYNQKFQGKAKLTAVSSASTAYMELSSLTNEDSAVYYCTRGGAMDYWGQGTSVTVSS VL: IVMTQTPKLLPVSAGDRVTMTCKASQSVDNSVAWYQQKPGQSPKLLIFYASNHYTGVPDRFTASGSGTDFTFTISSVQVEDLAVYFCQQHFSSPRTFGGGTKLEIR | OD | 1.51 |
